Listed here: items and their measured TGI.
# System: CCRF-CEM leukemia
# TEST_SUMMARY: NCI tumour cell line growth inhibition, 48 h

{"MOLECULE": "O=C1NC(=NCCc2ccccc2Cl)S/C1=C\\c1ccc2ncccc2c1", "TGI": "> 25 µM"}
{"MOLECULE": "COc1ccc(OC)c2c1C[C@@H]1C(C#N)N3[C@H](Cc4c(OC)ccc(OC)c4[C@@H]3C)C(=O)N1[C@H]2C (stereo partly drawn)", "TGI": "6.75 µM"}
{"MOLECULE": "COC(=O)c1c(C)nc(C)c(N=O)c1-c1ccccc1C(F)(F)F", "TGI": "> 100 µM"}
{"MOLECULE": "CC(CN(CP(=O)([O-])[O-])CP(=O)([O-])[O-])N(CP(=O)([O-])[O-])CP(=O)([O-])[O-].N[C@@H]1CCCC[C@@H]1N.[Pt+2] (stereo not drawn)", "TGI": "> 100 µM"}
{"MOLECULE": "CCOC(=O)C(=Cc1ccccc1Br)C(=O)OCC", "TGI": "> 100 µM"}
{"MOLECULE": "NC(=O)c1cc2ccccc2c(N=Nc2ccccc2)c1O", "TGI": "> 100 µM"}
{"MOLECULE": "CC(C)(C)[C@@H]1NC(=O)CN1C(=O)OCc1ccccc1", "TGI": "> 100 µM"}
{"MOLECULE": "CCP(=O)(CC)C(Cl)(Cl)C(=O)NC", "TGI": "> 100 µM"}

Kindly indicate its recorded TGI. Item: CCCCc1cc2c(cc1O)CCC1C2CC[C@@]2(C)C1CC[C@@H]2O (stereo partly drawn) 56.7 µM

Let me know recorded TGI for Cc1cc2c(=O)cc(-c3ccc(Cl)cc3)oc2c(C(=O)O)c1C , thanks. > 100 µM

Return reported TGI. Input molecule: CC(=O)O[C@H]1C(=O)[C@]2(C)[C@@H](OC(=O)OCC(O)CO)C[C@H]3OC[C@@]3(OC(C)=O)[C@H]2[C@H](OC(=O)c2ccccc2)[C@]2(O)C[C@H](OC(=O)[C@H](O)[C@@H](NC(=O)c3ccccc3)c3ccccc3)C(C)=C1C2(C)C (stereo partly drawn) 31 µM

Give the value of TGI reported for the following: CC1=C(C)C(=O)C(C(C)C2=C(C)C(=O)C(C)=C(C)C2=O)=C(C)C1=O 50.7 µM

Give TGI for the following molecule: COC(=O)CCCc1ccc2c(c1)CCC2 > 100 µM

Give TGI for the following molecule: Cc1c2cc[n+](C)cc2c(C)c2c1[nH]c1ccc(O)cc12 > 92.6 µM

Specify measured TGI for CCOc1ccc2c(c1)/C(=C\C=C\C1CC(C)C3CC(OCC)CCC3N1CC)CC(C)N2CC (stereo not drawn) . 2.71 µM

Give me measured TGI, please, for this molecule: C#CCNC(Cc1ccccc1)C(=O)O (stereo not drawn) > 100 µM

Determine its reported TGI: O=[N+]([O-])c1ccccc1S(=O)(=O)N1CCCc2cc(Cl)ccc21 > 100 µM

Retrieve TGI measured for Cc1ccc(Nc2ncnc3sc(SCc4ccccc4)nc23)cc1 and print it. > 100 µM

Please list TGI recorded for the molecule COc1ccc(N=NN2CCCC2)cc1 56.6 µM

Return reported TGI. Input molecule: CC(C)(C)c1cc(C2COC(=O)COCCOCC(=O)OCCOCCO2)cc(C(C)(C)C)c1O (stereo not drawn) > 100 µM

Output measured TGI for this item: N#Cc1ccc(Nc2nc3nc[nH]c3c(=O)[nH]2)cc1 > 100 µM

Look up TGI of CC(=O)c1nc2ccccc2n1CC(=O)c1ccc([N+](=O)[O-])cc1 and report it. > 100 µM

* * *

Entries and their TGI values follow.
# System: SK-MEL-28 melanoma
# TEST_SUMMARY: NCI tumour cell line growth inhibition, 48 h

{"STRUCTURE_AS_SMILES": "O=Cc1cc(O)c(O)c(O)c1-c1c(C=O)cc(O)c(O)c1O", "MEASURED_TARGET": "SK-MEL-28 melanoma", "ATTRIBUTE_MEASURED": "TGI", "EXPERIMENTAL_RESULT": "> 100 µM"}
{"STRUCTURE_AS_SMILES": "COc1ccccc1Nc1nc(-c2cc3cccc(C(F)(F)F)c3oc2=O)cs1", "MEASURED_TARGET": "SK-MEL-28 melanoma", "ATTRIBUTE_MEASURED": "TGI", "EXPERIMENTAL_RESULT": "> 100 µM"}
{"STRUCTURE_AS_SMILES": "O=Cc1ccc(C(F)(F)F)cc1.[C-]#[O+].[C-]#[O+].[C-]#[O+].[Cr]", "MEASURED_TARGET": "SK-MEL-28 melanoma", "ATTRIBUTE_MEASURED": "TGI", "EXPERIMENTAL_RESULT": "> 100 µM"}
{"STRUCTURE_AS_SMILES": "Cc1ccccc1NC(=O)c1[nH]c(=S)nc(N)c1-c1ccccc1C", "MEASURED_TARGET": "SK-MEL-28 melanoma", "ATTRIBUTE_MEASURED": "TGI", "EXPERIMENTAL_RESULT": "> 100 µM"}

Kindly review the next molecule as well.
Give TGI only, for Cc1[nH]n(C(=O)c2ccccc2O)c(=O)c1/C=C1\C(=O)C=Cc2ccccc21 , using SK-MEL-28 melanoma data. 71.6 µM

* * *

# Tested on: OVCAR-8 ovarian
# TEST_SUMMARY: NCI tumour cell line growth inhibition, 48 h
ATTRIBUTE_MEASURED: TGI (µM)
Please give a number only; it is taken to be in µM.

# count of solved cases: 3
{"COMPOUND": "COc1ccc(C(=O)Nc2cccc(C3CC(=O)c4c(cc(OC)c(OC)c4OC)O3)c2)cc1 (centres undefined)", "MEASURED_TARGET": "OVCAR-8 ovarian", "TGI, µM": 20.5}
{"COMPOUND": "CCCCN(CCCC)CC(=O)c1ccc2cc(Cl)c3ccccc3c2c1", "MEASURED_TARGET": "OVCAR-8 ovarian", "TGI, µM": 51.8}
{"COMPOUND": "CC(=O)c1ccc2c(c1)CC1(C2)Cc2cc3c(cc2C1)C(=O)CC3 (centres undefined)", "MEASURED_TARGET": "OVCAR-8 ovarian", "TGI, µM": 19.5}

Then this compound:
Using OVCAR-8 ovarian as the test system, report measured TGI of CC1OC(OC2C(CO)OC(O[C@H]3CC[C@@]4(C)C(=CC[C@H]5[C@@H]6C[C@@H]7O[C@](O)(CC[C@@H](C)COC8OC(CO)C(O)C(O)C8O)[C@@H](C)[C@@H]7[C@@]6(C)CC[C@@H]54)C3)C(OC3OC(C)C(O)C(O)C3O)C2O)C(O)C(O)C1O (some centres undefined) . 4.09

* * *

# Test system: SR leukemia
# TEST_SUMMARY: NCI tumour cell line growth inhibition, 48 h; in the data active means GI50 below about 0.43 µM; inactive means the rest
Log the outcome using a class from 1 = active, 0 = inactive

// below: answered compounds
{"COMPOUND": "Cc1cc(S(N)(=O)=O)c(S/C(=N\\NS(=O)(=O)c2ccc(Cl)cc2)c2ccc(Cl)cc2)cc1Cl", "CLASS_NAME": 0}
{"COMPOUND": "CC(C)[C@]12O[C@H]1[C@@H]1O[C@]13[C@]1(O[C@H]1C[C@H]1c4c(C(=O)c5ccccc5)oc(OC(=O)c5ccccc5)c4CC[C@@]13C)[C@@H]2O", "CLASS_NAME": 1}
{"COMPOUND": "COc1ccc(-n2c(N)c(C(=O)NCCN3CCOCC3)c3nc4ccccc4nc32)cc1OC", "CLASS_NAME": 0}
{"COMPOUND": "COc1ccc(/C=C(/C(=O)N2CCNCC2)c2cc(OC)c(OC)c(OC)c2)cc1O", "CLASS_NAME": 0}
{"COMPOUND": "Fc1ccc(Nc2nc(Nc3ccc(-c4nc5ccccc5[nH]4)cc3)nc(N3CCCC3)n2)cc1", "CLASS_NAME": 0}
{"COMPOUND": "Cc1ccc(/C=C2\\CCOC2=O)cc1", "CLASS_NAME": 0}

Please share the test call associated with C[n+]1c2ccccc2c(NC2CCNCC2)c2[nH]c3ccccc3c21 . 0

Call for entry O=C1c2cccc3cccc(c23)C(=O)N1CCCCOc1ccc(-c2nc3ccc(N4CCOCC4)cc3[nH]2)cc1 : 0

Test call, this compound: COc1ccc(C2CC(c3cc(OC)c(OC)c(OC)c3)=NN2)cc1 (centres undefined) 0

* * *

# Tested on: HCC-2998 colon
# TEST_SUMMARY: NCI tumour cell line growth inhibition, 48 h
Below, each of the compounds is paired with its reported TGI value.
Number only, in µM; omit the unit.

Example entries and their recorded answers appear below.
{"COMPOUND": "N#Cc1c2ccccc2c2nnc3cc(Cl)c(Cl)cc3n12", "TGI (µM)": 82.1}
{"COMPOUND": "COC(=O)c1nc2c(C)c(O)c(O)c([C@H](C)CCC=C(C)C)c2o1", "TGI (µM)": 96.2}
{"COMPOUND": "COc1ccccc1NC(=S)N/N=C(/c1ccccc1)c1ccccn1", "TGI (µM)": 29.1}

Report value only: TGI, HCC-2998 colon, CN(C)CCn1cc(-c2ccc3c(Nc4ccc(CC(=O)Nc5cccc(F)c5)cc4)ncnc3c2)cn1 3.84

Give HCC-2998 colon TGI for the following compound: COc1cc(-c2ccc(-c3ccc(C(=N)N)s3)s2)cc(OC)c1OC 3.24

Give TGI; test system HCC-2998 colon; compound CCOC(=O)C(=Cc1ccccc1Br)C(=O)OCC 6.54

Param request: TGI | system HCC-2998 colon | item CCCCCCCCSC1=CC(=O)C(OC)=C(OC)C1=O 24.4

Look up and report measured TGI (HCC-2998 colon) for the following compound: CC1=C(C(=O)Nc2ccc(F)c(Cl)c2)C(c2cccc(Cl)c2)NC(=O)N1 (configuration not stated) 32.5

Give TGI for CNCCNc1nc2ccccc2c2c(=O)c3cccc(OC)c3sc12 tested on HCC-2998 colon. 3.18

Check HCC-2998 colon data and give TGI for CC(C)(C)CC(C)(C)Cc1ccc(OCCOCC[N+](C)(C)Cc2ccccc2)cc1 . 3.02
